Taken from ChEMBL document CHEMBL4354856.

- Tested on: L02
- Method summary: Cytotoxicity against human HL7702 cells assessed as inhibition of cell proliferation measured after 48 hrs by MTT assay
- Format: cell-based
- Experimental setup: L02, 48 h
Readout kind: IC50 (µM)
// return numeric value only (unit: µM, not printed)

{"Chemical structure": "COc1cc([C@@H]2c3cc4c(cc3[C@@H](O[C@@H]3O[C@@H]5CO[C@@H](c6cccs6)O[C@H]5[C@H](O)[C@H]3NC(=O)CSc3nc5cc(F)ccc5o3)[C@H]3COC(=O)[C@H]23)OCO4)cc(OC)c1O", "System name": "L02", "IC50 / µM": 144}

Request: # return IC50 of COc1cc([C@@H]2c3cc4c(cc3[C@@H](O[C@@H]3O[C@@H]5CO[C@@H](c6cccs6)O[C@H]5[C@H](O)[C@H]3NC(=O)CSc3nc5cc(F)ccc5s3)[C@H]3COC(=O)[C@H]23)OCO4)cc(OC)c1O (system: L02)
Response: 156

Request: # return IC50 of COc1cc([C@@H]2c3cc4c(cc3[C@@H](O[C@@H]3O[C@@H]5CO[C@@H](c6cccs6)O[C@H]5[C@H](O)[C@H]3OC(=O)CSc3nc5cc(F)ccc5s3)[C@H]3COC(=O)[C@H]23)OCO4)cc(OC)c1O (system: L02)
Response: 18.5

----------
- Tested on: HepG2
- Method summary: Anticancer activity against human HepG2 cells assessed as inhibition of cell proliferation measured after 48 hrs by MTT assay
- Type: functional, cell-based
- Experimental setup: HepG2, 48 h
List of IC50 values.
// return numeric value only (unit: µM, not printed)

{"Chemical structure": "COc1cc([C@@H]2c3cc4c(cc3[C@@H](O[C@@H]3O[C@@H]5CO[C@@H](c6cccs6)O[C@H]5[C@H](OC(=O)CSc5nc6cc(F)ccc6o5)[C@H]3NC(=O)CSc3nc5cc(F)ccc5o3)[C@H]3COC(=O)[C@H]23)OCO4)cc(OC)c1O", "Unit abbreviation": "µM", "IC50": 11.1}
{"Chemical structure": "COc1cc([C@@H]2c3cc4c(cc3[C@@H](O[C@@H]3O[C@@H]5CO[C@@H](c6cccs6)O[C@H]5[C@H](OC(=O)CSc5nc6cc(F)ccc6s5)[C@H]3NC(=O)CSc3nc5cc(F)ccc5s3)[C@H]3COC(=O)[C@H]23)OCO4)cc(OC)c1O", "Unit abbreviation": "µM", "IC50": 10.3}
{"Chemical structure": "COc1cc([C@@H]2c3cc4c(cc3[C@@H](O[C@@H]3O[C@@H]5CO[C@@H](c6cccs6)O[C@H]5[C@H](O)[C@H]3NC(=O)CSc3nc5cc(F)ccc5s3)[C@H]3COC(=O)[C@H]23)OCO4)cc(OC)c1O", "Unit abbreviation": "µM", "IC50": 120}

Turning to the following compound.
Request: State, in one line, measured IC50 of COc1cc([C@@H]2c3cc4c(cc3[C@@H](O[C@@H]3O[C@@H]5CO[C@@H](c6cccs6)O[C@H]5[C@H](OC(=O)CSc5nc6cc(F)ccc6s5)[C@H]3OC(=O)CSc3nc5cc(F)ccc5s3)[C@H]3COC(=O)[C@H]23)OCO4)cc(OC)c1O
Response: 38.4

----------
- System: L02
- Method summary: Cytotoxicity against human HL7702 cells assessed as inhibition of cell proliferation measured after 48 hrs by MTT assay
- Assay type: cell-based
- Experimental setup: L02, 48 h
Readout kind: pIC50
Reminder that pIC50 means the negative base-10 logarithm of the concentration expressed in mol/L.

Guide cases for pIC50, answers given:
{"Chemical structure": "COc1cc([C@@H]2c3cc4c(cc3[C@@H](O[C@@H]3O[C@@H]5CO[C@@H](c6cccs6)O[C@H]5[C@H](OC(=O)CSc5nc6cc(F)ccc6o5)[C@H]3OC(=O)CSc3nc5cc(F)ccc5o3)[C@H]3COC(=O)[C@H]23)OCO4)cc(OC)c1O", "Readout kind": "pIC50", "Measured value": 4.69}
{"Chemical structure": "COc1cc([C@@H]2c3cc4c(cc3[C@@H](O[C@@H]3O[C@@H]5CO[C@@H](c6cccs6)O[C@H]5[C@H](OC(=O)CSc5nc6cc(F)ccc6s5)[C@H]3OC(=O)CSc3nc5cc(F)ccc5s3)[C@H]3COC(=O)[C@H]23)OCO4)cc(OC)c1O", "Readout kind": "pIC50", "Measured value": 4.66}
{"Chemical structure": "COc1cc([C@@H]2c3cc4c(cc3[C@@H](O[C@@H]3O[C@@H]5CO[C@@H](c6cccs6)O[C@H]5[C@H](OC(=O)CSc5nc6cc(F)ccc6o5)[C@H]3NC(=O)CSc3nc5cc(F)ccc5o3)[C@H]3COC(=O)[C@H]23)OCO4)cc(OC)c1O", "Readout kind": "pIC50", "Measured value": 3.91}

Turning to the following compound.
Request: State, in one line, measured pIC50 of COc1cc([C@@H]2c3cc4c(cc3[C@@H](O[C@@H]3O[C@@H]5CO[C@@H](c6cccs6)O[C@H]5[C@H](OC(=O)CSc5nc6cc(F)ccc6s5)[C@H]3NC(=O)CSc3nc5cc(F)ccc5s3)[C@H]3COC(=O)[C@H]23)OCO4)cc(OC)c1O
Response: 3.92
